# test system: SpCas9 (Streptococcus pyogenes serotype M1, UniProt Q99ZW2)
# Sequence (Q99ZW2 whole entry): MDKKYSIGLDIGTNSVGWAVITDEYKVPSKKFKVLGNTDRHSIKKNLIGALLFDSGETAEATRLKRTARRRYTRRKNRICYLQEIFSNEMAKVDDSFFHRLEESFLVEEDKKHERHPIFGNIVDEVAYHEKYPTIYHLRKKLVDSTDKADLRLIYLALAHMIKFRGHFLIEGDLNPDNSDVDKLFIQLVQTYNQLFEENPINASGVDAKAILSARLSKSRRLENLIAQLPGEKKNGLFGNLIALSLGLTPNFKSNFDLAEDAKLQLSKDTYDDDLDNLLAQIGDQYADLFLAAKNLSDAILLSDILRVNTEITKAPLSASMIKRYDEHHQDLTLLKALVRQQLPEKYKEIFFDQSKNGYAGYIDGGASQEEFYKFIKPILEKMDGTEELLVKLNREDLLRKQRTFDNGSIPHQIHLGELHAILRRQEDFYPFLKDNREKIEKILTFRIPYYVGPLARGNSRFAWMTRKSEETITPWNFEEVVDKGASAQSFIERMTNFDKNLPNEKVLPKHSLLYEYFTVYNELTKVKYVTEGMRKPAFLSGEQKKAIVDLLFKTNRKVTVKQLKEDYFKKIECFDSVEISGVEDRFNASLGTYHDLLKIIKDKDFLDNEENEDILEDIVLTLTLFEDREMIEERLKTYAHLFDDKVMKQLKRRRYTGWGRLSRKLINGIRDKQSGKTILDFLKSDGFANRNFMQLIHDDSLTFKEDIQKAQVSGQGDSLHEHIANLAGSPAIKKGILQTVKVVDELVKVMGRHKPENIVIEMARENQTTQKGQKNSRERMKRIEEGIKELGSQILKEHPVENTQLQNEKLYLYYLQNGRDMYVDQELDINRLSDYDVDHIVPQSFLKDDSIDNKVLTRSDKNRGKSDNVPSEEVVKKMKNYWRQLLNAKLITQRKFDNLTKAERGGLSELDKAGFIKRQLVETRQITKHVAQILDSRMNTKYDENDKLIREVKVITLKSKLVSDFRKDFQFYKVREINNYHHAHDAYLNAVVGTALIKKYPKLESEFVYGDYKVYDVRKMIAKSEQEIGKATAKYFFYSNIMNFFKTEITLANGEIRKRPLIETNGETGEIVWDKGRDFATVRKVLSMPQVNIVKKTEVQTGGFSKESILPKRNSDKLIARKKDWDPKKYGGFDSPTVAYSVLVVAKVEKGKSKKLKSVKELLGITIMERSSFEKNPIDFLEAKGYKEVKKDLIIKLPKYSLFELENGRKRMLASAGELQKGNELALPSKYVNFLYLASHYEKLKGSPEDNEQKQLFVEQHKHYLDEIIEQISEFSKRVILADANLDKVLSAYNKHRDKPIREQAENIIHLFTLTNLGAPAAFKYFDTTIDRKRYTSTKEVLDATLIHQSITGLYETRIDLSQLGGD
# protocol: Strand displacement assay (SDA) / cumulative activity assay (CAA), SpCas9 primary screen
# Type: biochemical
# particulars: Primary Screen (150 min)
// reported avg z score primary per item
// keep it numeric: no unit symbol after the value

compound	test system	test result
CCn1c(=O)c(C(=O)Nc2nccc(C)n2)c(O)c2ccccc21 [Compound G650-0193]	SpCas9 (Streptococcus pyogenes serotype M1, UniProt Q99ZW2)	11.65
Cl.NC(CO)C(=O)NNCc1ccc(O)c(O)c1O (stereo not drawn) [Compound S2453]	SpCas9 (Streptococcus pyogenes serotype M1, UniProt Q99ZW2)	5.09
O=C(Nc1nnc(C2CC2)s1)c1ccc2ncsc2c1 [Compound T0514-1693]	SpCas9 (Streptococcus pyogenes serotype M1, UniProt Q99ZW2)	5.62
O=C(CCS(=O)(=O)c1ccc(Cl)cc1)Nc1nc(-c2ccncc2)cs1 [Compound G786-1325]	SpCas9 (Streptococcus pyogenes serotype M1, UniProt Q99ZW2)	4.35
CCCCC(=O)Nc1ccc(N2CCC(C(N)=O)(N3CCCCC3)CC2)c(C(=O)O)c1 [Compound G889-0171]	SpCas9 (Streptococcus pyogenes serotype M1, UniProt Q99ZW2)	3.38
Cc1c(P(=S)(N2CCOCC2)N2CCOCC2)cc(C#N)n1C [Compound T0503-9777]	SpCas9 (Streptococcus pyogenes serotype M1, UniProt Q99ZW2)	4.67
COc1ccc(C2CNC(=O)C2)cc1OC1CCCC1 (stereo not drawn) [Compound S2127]	SpCas9 (Streptococcus pyogenes serotype M1, UniProt Q99ZW2)	3.63
CCC(C)NC(=O)c1cccc(Oc2cc(-c3ccccc3)ncn2)c1 (stereo not drawn) [Compound L663-0996]	SpCas9 (Streptococcus pyogenes serotype M1, UniProt Q99ZW2)	7.57

// compound Cc1ccc(C(C)NC(=O)c2cccc(Oc3cc(-c4ccccc4)ncn3)c2)cc1 (stereo not drawn) [Compound L663-1062] , assay SpCas9 (Streptococcus pyogenes serotype M1, UniProt Q99ZW2), avg z score primary value: 5.51

---

# test system: SpCas9 (Streptococcus pyogenes serotype M1)
# protocol: HiBiT knock-in assay, SpCas9, HEK293T cells
# Assay type: cell-based
# particulars: EC50 in the HiBiT knock-in assay, from three independent experiments
metric: EC50 (µM)
Use µM as the unit, but write only the number.

In plain terms, O=C(CCS(=O)(=O)c1ccc(Cl)cc1)Nc1nc(-c2ccncc2)cs1 [BRD7586] has a documented EC50 of 5.7

---

// reported SpCas9 eGFP disruption Rep2 per item
# test system: SpCas9 (Streptococcus pyogenes serotype M1)
# protocol: eGFP disruption assay, SpCas9, U2OS.eGFP.PEST cells
# Format: cell-based
# particulars: replicate 2, raw readout
// keep it numeric: no unit symbol after the value

Solved entries:
compound	SpCas9 eGFP disruption Rep2
CNS(=O)(=O)c1ccc2nc(NC(=O)c3ccc(N4C(=O)CCC4=O)cc3)sc2c1 [Compound G786-1562]	60.132
Cc1nc2ccccc2n1Cc1nnc2n1N=C(N)CS2 [Compound D727-0339]	58.84
C=Cc1ccc(CSC2=NS(=O)(=O)c3ccccc3N2)cc1 [Compound K261-1443]	72.337
CCc1cccc(-n2nnnc2N2CCN(C(=O)Nc3ccc(C)cc3Cl)CC2)c1 [Compound L378-0331]	77.513
Cc1ccc(-c2nn3c(-c4cccnc4)nnc3s2)cc1 [Compound D727-0047]	54.891

In plain terms, CS(=O)(=O)Nc1cnc(N2CCC(C(N)=O)(N3CCCCC3)CC2)c(C(=O)O)c1 [Compound F293-0183] has a documented SpCas9 eGFP disruption Rep2 of 53.8

In plain terms, CCn1c(=O)c(C(=O)Nc2nccc(C)n2)c(O)c2ccccc21 [Compound G650-0193] has a documented SpCas9 eGFP disruption Rep2 of 55.676

In plain terms, COc1ccc(-c2nnc3sc(-c4cccnc4)nn23)cc1OC [Compound D727-0025] has a documented SpCas9 eGFP disruption Rep2 of 59.908
